System: Burkholderia; further: test concentration or dose not given here
measurement_setup: relative to DMSO control; 0.00 = growth with inhibitor equal to or greater than DMSO control
Marks after values point to notes of the source that are not given here.
property_label: % Growth Inhibition Endpoint (24 h)

response.value for Oc1ccc(-c2cncn2CCc2ccccc2)cc1 [HGN-0022] (field: % Growth Inhibition Endpoint (24 h)) = 0.00^b %

response.value for CCOC(=O)c1cnc(NCCc2ccc(Cl)c(Cl)c2)[nH]c1=O [HGN-0131] (field: % Growth Inhibition Endpoint (24 h)) = 0.00^b %

response.value for CCOC(=O)c1cnc(NCCc2c(Cl)cccc2Cl)[nH]c1=O [HGN-0135] (field: % Growth Inhibition Endpoint (24 h)) = 0.00^b %

* * *

System: Burkholderia; further: test concentration or dose not given here
measurement_setup: relative to DMSO control; 0.00 = growth with inhibitor equal to or greater than DMSO control
Marks after values point to notes of the source that are not given here.
I'd be grateful if you could share measured % Growth Inhibition Endpoint (24 h) for these entries.

response.value for O=C([O-])c1cnc(Nc2ccc3cn[nH]c3c2)nc1[O-].[Na+].[Na+] (field: % Growth Inhibition Endpoint (24 h)) = 0.00^b %

response.value for O=C([O-])c1cnc(NCCc2ccc(F)cc2)nc1[O-].[Na+].[Na+] (field: % Growth Inhibition Endpoint (24 h)) = 19.82 ± 16.53%

response.value for O=C([O-])c1cnc(NCc2cccc(Cl)c2)nc1[O-].[Na+].[Na+] (field: % Growth Inhibition Endpoint (24 h)) = 30.67 ± 2.67%

response.value for CCOC(=O)c1cnc(NCc2ccc(F)cc2)[nH]c1=O (field: % Growth Inhibition Endpoint (24 h)) = 0.00^b %

response.value for CCOC(=O)c1cnc(NCc2ccco2)[nH]c1=O (field: % Growth Inhibition Endpoint (24 h)) = 0.00^b %

response.value for NC(=O)c1c[nH]nc1NC(=O)c1cncs1 (field: % Growth Inhibition Endpoint (24 h)) = 0.00^b %

response.value for Nc1ccn([C@@H]2O[C@H](CNC(=O)c3ccnc4nc[nH]c34)[C@@H](O)[C@H]2O)c(=O)n1 (field: % Growth Inhibition Endpoint (24 h)) = 0.00^b %

response.value for Nc1ccn([C@@H]2O[C@H](CNC(=O)c3cn4ccsc4n3)[C@@H](O)[C@H]2O)c(=O)n1 (field: % Growth Inhibition Endpoint (24 h)) = 0.00^b %

response.value for Oc1ccc(-c2cncn2CCc2ccc(Cl)cc2)cc1 (field: % Growth Inhibition Endpoint (24 h)) = 0.00^b %

response.value for Oc1ccc(-c2cncn2CCc2ccc(Cl)cc2Cl)cc1 (field: % Growth Inhibition Endpoint (24 h)) = 0.00^b %

response.value for O=C([O-])c1cnc(NCc2ccco2)nc1[O-].[Na+].[Na+] (field: % Growth Inhibition Endpoint (24 h)) = 12.25 ± 0.40%

response.value for CCOC(=O)c1cnc(NCc2ccccc2Cl)[nH]c1=O (field: % Growth Inhibition Endpoint (24 h)) = 0.00^b %

response.value for O=C([O-])c1cnc(NCCc2ccccc2Cl)nc1[O-].[Na+].[Na+] (field: % Growth Inhibition Endpoint (24 h)) = 80.30 ± 0.40%

response.value for Nc1ccn([C@@H]2O[C@H](CNC(=O)c3cscn3)[C@@H](O)[C@H]2O)c(=O)n1 (field: % Growth Inhibition Endpoint (24 h)) = 0.00^b %

response.value for CCOC(=O)c1cnc(Nc2ccc3[nH]ncc3c2)[nH]c1=O (field: % Growth Inhibition Endpoint (24 h)) = 20.70 ± 0.71%

response.value for Oc1ccc(-c2cncn2Cc2ccccc2F)cc1 (field: % Growth Inhibition Endpoint (24 h)) = 33.79 ± 16.09%

response.value for CCOC(=O)c1cnc(NCCc2ccc(Cl)cc2)[nH]c1=O (field: % Growth Inhibition Endpoint (24 h)) = 0.00^b %

response.value for CCOC(=O)c1cnc(NCCc2ccc(Cl)cc2Cl)[nH]c1=O (field: % Growth Inhibition Endpoint (24 h)) = 0.00^b %

response.value for O=C([O-])c1cnc(NCC2CCCO2)nc1[O-].[Na+].[Na+] (stereo not drawn) (field: % Growth Inhibition Endpoint (24 h)) = 32.99 ± 9.22%

response.value for CCOC(=O)c1cnc(NCc2ccccc2F)[nH]c1=O (field: % Growth Inhibition Endpoint (24 h)) = 0.00^b %

response.value for NC(=O)c1c[nH]nc1NC(=O)Cc1cn2ccsc2n1 (field: % Growth Inhibition Endpoint (24 h)) = 0.00^b %

response.value for O=C([O-])c1cnc(Nc2ccc(Br)cc2)nc1[O-].[Na+].[Na+] (field: % Growth Inhibition Endpoint (24 h)) = 15.52 ± 0.41%

response.value for Oc1ccc(-c2cncn2CCc2ccccc2F)cc1 (field: % Growth Inhibition Endpoint (24 h)) = 2.75 ± 2.62%

response.value for CCOC(=O)c1cnc(Nc2cccc(-c3ccccc3)c2)[nH]c1=O (field: % Growth Inhibition Endpoint (24 h)) = 0.00^b %
